Assignment: determine reported activity change, negative = inhibition for the given molecules.
- Target System: Beta-2 adrenergic receptor (Homo sapiens) (UniProt P07550)
- Sequence (P07550 whole entry, looked up): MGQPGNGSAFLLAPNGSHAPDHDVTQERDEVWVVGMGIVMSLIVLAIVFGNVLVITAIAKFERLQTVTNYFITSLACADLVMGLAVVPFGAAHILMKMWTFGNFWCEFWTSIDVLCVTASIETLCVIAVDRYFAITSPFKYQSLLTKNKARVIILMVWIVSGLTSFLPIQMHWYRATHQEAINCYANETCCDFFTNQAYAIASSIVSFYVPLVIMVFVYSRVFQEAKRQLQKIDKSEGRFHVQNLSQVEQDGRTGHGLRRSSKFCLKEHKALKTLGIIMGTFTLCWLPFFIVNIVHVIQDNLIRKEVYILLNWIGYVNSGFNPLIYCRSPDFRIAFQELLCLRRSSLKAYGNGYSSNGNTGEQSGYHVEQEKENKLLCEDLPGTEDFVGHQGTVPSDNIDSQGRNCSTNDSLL
- Protocol Description: Adrenergic beta2 receptor (ADRB2) small molecule antagonists, cell-based qHTS assay (AID 1963592); note: % is set by controls: 0 for no effect and ±100 for the full control effect; nearly all actives have a fitted effect of over 50% in size
- Particulars: CHO-ADRB2 cells, isoproterenol-stimulated cAMP HTRF ratio, 0.5 h; series mostly up to 92.4 µM
Results filed as inconclusive are left out. The source made the active and inactive calls. Calls come from the whole dose curve.

q: Entry `Clc1c(Cl)c(Cl)c(Cl)c(Cl)c1Cl` has what activity change, negative = inhibition?
a: -5.22% [at 8.39 µM] (inactive)

q: What do you get for C[CH2][Hg][N]1C(=O)C2C(C1=O)C1(Cl)C(Cl)=C(Cl)C2(Cl)C1(Cl)Cl (configuration not stated) ?
a: -18.8% [at 19 µM] (inactive)

q: What do you get for `CC(=O)OCC1=C(C(=O)O)N2C(=O)[C@@H](N)[C@H]2SC1` ?
a: -0.292% [at 19 µM] (inactive)

q: What do you get for NCC(CC(=O)O)c1ccc(Cl)cc1 (configuration not stated) ?
a: 2.66% [at 0.349 µM] (inactive)

q: What do you get for `CN(C)C(=S)[S-].CN(C)C(=S)[S-].[Cu+2]` ?
a: 0.898% [at 19 µM] (inactive)

q: What do you get for `CC1=C(C(=O)O)N2C(=O)[C@@H](N)[C@H]2SC1` ?
a: 2.77% [at 19 µM] (inactive)

q: What do you get for `[Cl][Sn]([c]1ccccc1)([c]1ccccc1)[c]1ccccc1` ?
a: 1.04% [at 19 µM] (inactive)

q: What do you get for `CCCCCCCCCCCCN=C(N)N` ?
a: -9.86% [at 3.27 µM] (inactive)

q: What do you get for `Cc1ccc2nc3sc(=O)sc3nc2c1` ?
a: -4.14% [at 19 µM] (inactive)

q: What do you get for Cc1ccc2c(c1)C1CN(C)CCC1N2 (configuration not stated) ?
a: -2.7% [at 19 µM] (inactive)

q: What do you get for `Nc1c(Br)cc(Br)c2c1C(=O)c1ccccc1C2=O` ?
a: 17.4% [at 19 µM] (inactive)

q: What do you get for `CCCCCCC(=O)CCCCCC/C=C/C[C@@H](O)[C@H](O)[C@@](N)(CO)C(=O)O` ?
a: 9.53% [at 19 µM] (inactive)

----------
- Target System: Muscarinic acetylcholine receptor M1 (Homo sapiens) (UniProt P11229)
- Sequence (P11229 whole entry, looked up): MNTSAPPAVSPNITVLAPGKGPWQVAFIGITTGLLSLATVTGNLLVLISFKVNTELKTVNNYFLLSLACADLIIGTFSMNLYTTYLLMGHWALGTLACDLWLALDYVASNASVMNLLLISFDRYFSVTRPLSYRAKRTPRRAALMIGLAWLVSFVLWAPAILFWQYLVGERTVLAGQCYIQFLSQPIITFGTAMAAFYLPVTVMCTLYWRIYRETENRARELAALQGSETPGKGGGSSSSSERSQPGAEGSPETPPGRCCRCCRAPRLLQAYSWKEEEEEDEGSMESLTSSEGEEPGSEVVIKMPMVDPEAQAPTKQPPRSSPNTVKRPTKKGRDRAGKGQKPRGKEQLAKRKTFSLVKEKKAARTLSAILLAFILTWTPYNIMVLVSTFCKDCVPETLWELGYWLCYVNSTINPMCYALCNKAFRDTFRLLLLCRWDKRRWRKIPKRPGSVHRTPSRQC
- Protocol Description: Cholinergic receptor muscarinic 1 (CHRM1) small molecule antagonists, cell-based qHTS assay (AID 1963588); note: nearly all actives have a fitted effect of over 40% in size
- Particulars: CHRM1-CHO antagonist mode, calcium flux fluorescence; series mostly up to 61.5 µM
Records with an inconclusive call do not appear. Activity calls are given as the source filed them. Calls come from the whole dose curve.
// one of active, inactive, no free text

q: // return assay outcome for `C#CC(C)(C)O`
a: inactive

q: What do you get for `Cc1cccc2sc3nncn3c12` ?
a: inactive

q: What do you get for `O=C(Nc1ccc(F)cc1F)c1cccnc1Oc1cccc(C(F)(F)F)c1` ?
a: inactive

q: What do you get for CCC(C)(NC(=O)c1cc(Cl)c(C)c(Cl)c1)C(=O)CCl (stereo not given) ?
a: inactive

q: What do you get for `CCOP(O)OCC` ?
a: inactive

q: What do you get for `O=c1[nH]c(Cl)c(Cl)cc1Cl` ?
a: inactive

q: What do you get for `N#CC(C#N)=C(C#N)C#N` ?
a: inactive

q: What do you get for `COP(=O)(OC)O/C(=C/Cl)c1cc(Cl)c(Cl)cc1Cl` ?
a: inactive

q: What do you get for `ClC1=C(Cl)[C@]2(Cl)[C@H]3[C@H]([C@H]4C=C[C@H]3C4)[C@@]1(Cl)C2(Cl)Cl` ?
a: inactive

q: What do you get for `OCC(c1ccc(Cl)cc1)c1ccc(Cl)cc1` ?
a: active

q: What do you get for `CC(C)[C@@H](C(=O)O[C@@H](C#N)c1cccc(Oc2ccccc2)c1)c1ccc(Cl)cc1` ?
a: inactive

q: What do you get for `CN(C)CCN(C)C` ?
a: inactive

q: What do you get for `CSCC[C@H](NC(=O)[C@H](Cc1c[nH]c2ccccc12)NC(=O)CCNC(=O)OC(C)(C)C)C(=O)N[C@@H](CC(=O)O)C(=O)N[C@@H](Cc1ccccc1)C(N)=O` ?
a: inactive

q: What do you get for `N=C(N)[Se]` ?
a: inactive

q: What do you get for CCCC[N+]1(C)[C@@H]2CC(OC(=O)[C@H](CO)c3ccccc3)C[C@H]1[C@@H]1O[C@@H]12 (stereo not given in full) ?
a: active

q: What do you get for `COc1cc(C[C@@H](C)N)c(OC)cc1Br` ?
a: active

q: What do you get for CC(C)(COCC1CO1)COCC1CO1 (stereo not given) ?
a: inactive

q: What do you get for `CC(=O)OC1(c2ccccc2)CCN(CCc2ccccc2)CC1` ?
a: inactive

q: What do you get for Cc1c(F)c(F)c(COC(=O)C2C(/C=C(\Cl)C(F)(F)F)C2(C)C)c(F)c1F (stereo not given) ?
a: inactive

q: What do you get for `C=CCC1=C(C)[C@@H](OC(=O)[C@@H]2[C@@H](C=C(C)C)C2(C)C)CC1=O` ?
a: active

q: What do you get for `CCOC(=O)CBr` ?
a: inactive

q: What do you get for `CCC[CH2][Sn]([CH2]CCC)([O]C(C)=O)[O]C(C)=O` ?
a: inactive

q: What do you get for CC(=O)NC1CCSC1=O (stereo not given) ?
a: inactive

q: What do you get for `C[C@@H]1CC2=CC(=O)CC[C@@H]2[C@H]2CC[C@@]3(C)[C@@H](CC[C@]3(C)O)[C@@H]21` ?
a: inactive

q: What do you get for `C[C@@H](N)[C@@H](O)c1ccccc1` ?
a: inactive
